The measurements presented in this section are drawn from patent US20230219986A1.

Target: wild-type EGFR (Homo sapiens, UniProt P00533)
Construct: purchased Signalchem
Sequence (P00533 25-1210): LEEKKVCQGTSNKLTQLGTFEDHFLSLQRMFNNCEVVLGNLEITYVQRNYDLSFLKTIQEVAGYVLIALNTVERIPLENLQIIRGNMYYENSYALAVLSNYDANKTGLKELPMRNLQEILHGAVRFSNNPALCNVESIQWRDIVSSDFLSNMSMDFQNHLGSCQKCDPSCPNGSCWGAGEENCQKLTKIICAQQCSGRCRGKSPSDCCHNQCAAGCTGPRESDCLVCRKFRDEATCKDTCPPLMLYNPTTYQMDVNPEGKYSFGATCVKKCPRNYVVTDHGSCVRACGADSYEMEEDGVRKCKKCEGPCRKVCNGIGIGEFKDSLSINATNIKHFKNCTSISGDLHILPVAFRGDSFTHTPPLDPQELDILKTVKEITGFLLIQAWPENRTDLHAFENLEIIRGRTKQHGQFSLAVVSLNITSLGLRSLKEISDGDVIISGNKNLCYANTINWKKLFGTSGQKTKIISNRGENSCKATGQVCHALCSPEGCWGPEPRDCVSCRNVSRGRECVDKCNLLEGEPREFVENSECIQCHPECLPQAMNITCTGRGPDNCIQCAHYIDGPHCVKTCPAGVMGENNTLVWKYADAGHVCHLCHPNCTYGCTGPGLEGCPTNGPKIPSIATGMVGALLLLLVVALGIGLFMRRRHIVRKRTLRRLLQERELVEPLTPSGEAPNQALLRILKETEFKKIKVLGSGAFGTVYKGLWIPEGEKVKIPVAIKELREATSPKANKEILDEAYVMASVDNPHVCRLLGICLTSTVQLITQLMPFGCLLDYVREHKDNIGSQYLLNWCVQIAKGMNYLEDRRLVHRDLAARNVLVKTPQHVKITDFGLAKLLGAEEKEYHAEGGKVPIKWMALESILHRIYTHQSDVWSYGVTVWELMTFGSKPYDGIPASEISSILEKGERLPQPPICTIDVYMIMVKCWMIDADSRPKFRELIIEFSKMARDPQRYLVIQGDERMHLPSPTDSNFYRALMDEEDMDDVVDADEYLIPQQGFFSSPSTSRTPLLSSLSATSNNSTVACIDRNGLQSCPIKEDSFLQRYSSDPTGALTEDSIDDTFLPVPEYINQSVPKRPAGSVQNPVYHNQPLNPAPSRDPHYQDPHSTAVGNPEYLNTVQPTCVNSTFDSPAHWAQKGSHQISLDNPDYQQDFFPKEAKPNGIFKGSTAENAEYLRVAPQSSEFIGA
Experiment: Enzymology experiment in vitro (HTRF/FRET kinase activity), wild-type EGFR
Type: biochemical
Details: HTRF KinEASE-TK, read-out: EGFR (WT) IC50
Structures can show the parent of a compound that is named as a salt.
With a cut-off of 0.001 µM, any IC50 strictly below it is called satisfied; any IC50 meeting it or above is called not satisfied.

>  <compound>
COc1cc(N2CCC(N3CCN(C)CC3)CC2)c(-c2cnn(C)c2)cc1Nc1ncc(Br)c(Nc2ccc3nccnc3c2P(C)(C)=O)n1 [compound 18]

>  <testTarget>
wild-type EGFR (Homo sapiens, UniProt P00533)

>  <classAssignment>
not satisfied

$$$$
>  <compound>
COc1cc(N2CCC3(CC2)CN(C)C3)c(-c2cnn(C)c2)cc1Nc1ncc(Br)c(Nc2ccc3nccnc3c2P(C)(C)=O)n1 [Compound 16, formate]

>  <testTarget>
wild-type EGFR (Homo sapiens, UniProt P00533)

>  <classAssignment>
satisfied

$$$$
>  <compound>
COc1cc(N2CCC3C(C2)CN3C)c(-c2cnn(C)c2)cc1Nc1ncc(Br)c(Nc2ccc3nccnc3c2P(C)(C)=O)n1 (racemic) [compound 221]

>  <testTarget>
wild-type EGFR (Homo sapiens, UniProt P00533)

>  <classAssignment>
not satisfied

$$$$
>  <compound>
COc1cc(N2CC(C)OC(C)C2)c(-c2cnn(C)c2)cc1Nc1ncc(Br)c(Nc2cc3c(cc2P(C)(C)=O)CC3)n1 (racemic) [compound 136]

>  <testTarget>
wild-type EGFR (Homo sapiens, UniProt P00533)

>  <classAssignment>
not satisfied

$$$$
>  <compound>
COc1cc(N2CCC(N3CCOCC3)CC2)c(-c2cnsc2)cc1Nc1ncc(Br)c(Nc2ccc3nccnc3c2P(C)(C)=O)n1 [compound 212]

>  <testTarget>
wild-type EGFR (Homo sapiens, UniProt P00533)

>  <classAssignment>
not satisfied

$$$$
>  <compound>
COc1cnc(-c2cnn(C)c2)cc1Nc1ncc(C)c(Nc2ccc3nccnc3c2P(C)(C)=O)n1 [compound 53]

>  <testTarget>
wild-type EGFR (Homo sapiens, UniProt P00533)

>  <classAssignment>
not satisfied

$$$$

====

Target: Ba/F3 De119/T790M/C797S EGFR triple mutant cell line (Homo sapiens, UniProt P00533, T790M/C797S, cells depend on it, form not given)
Sequence (P00533 with tags, fused parts or gaps DEL746-750/T790M/C797S, form open): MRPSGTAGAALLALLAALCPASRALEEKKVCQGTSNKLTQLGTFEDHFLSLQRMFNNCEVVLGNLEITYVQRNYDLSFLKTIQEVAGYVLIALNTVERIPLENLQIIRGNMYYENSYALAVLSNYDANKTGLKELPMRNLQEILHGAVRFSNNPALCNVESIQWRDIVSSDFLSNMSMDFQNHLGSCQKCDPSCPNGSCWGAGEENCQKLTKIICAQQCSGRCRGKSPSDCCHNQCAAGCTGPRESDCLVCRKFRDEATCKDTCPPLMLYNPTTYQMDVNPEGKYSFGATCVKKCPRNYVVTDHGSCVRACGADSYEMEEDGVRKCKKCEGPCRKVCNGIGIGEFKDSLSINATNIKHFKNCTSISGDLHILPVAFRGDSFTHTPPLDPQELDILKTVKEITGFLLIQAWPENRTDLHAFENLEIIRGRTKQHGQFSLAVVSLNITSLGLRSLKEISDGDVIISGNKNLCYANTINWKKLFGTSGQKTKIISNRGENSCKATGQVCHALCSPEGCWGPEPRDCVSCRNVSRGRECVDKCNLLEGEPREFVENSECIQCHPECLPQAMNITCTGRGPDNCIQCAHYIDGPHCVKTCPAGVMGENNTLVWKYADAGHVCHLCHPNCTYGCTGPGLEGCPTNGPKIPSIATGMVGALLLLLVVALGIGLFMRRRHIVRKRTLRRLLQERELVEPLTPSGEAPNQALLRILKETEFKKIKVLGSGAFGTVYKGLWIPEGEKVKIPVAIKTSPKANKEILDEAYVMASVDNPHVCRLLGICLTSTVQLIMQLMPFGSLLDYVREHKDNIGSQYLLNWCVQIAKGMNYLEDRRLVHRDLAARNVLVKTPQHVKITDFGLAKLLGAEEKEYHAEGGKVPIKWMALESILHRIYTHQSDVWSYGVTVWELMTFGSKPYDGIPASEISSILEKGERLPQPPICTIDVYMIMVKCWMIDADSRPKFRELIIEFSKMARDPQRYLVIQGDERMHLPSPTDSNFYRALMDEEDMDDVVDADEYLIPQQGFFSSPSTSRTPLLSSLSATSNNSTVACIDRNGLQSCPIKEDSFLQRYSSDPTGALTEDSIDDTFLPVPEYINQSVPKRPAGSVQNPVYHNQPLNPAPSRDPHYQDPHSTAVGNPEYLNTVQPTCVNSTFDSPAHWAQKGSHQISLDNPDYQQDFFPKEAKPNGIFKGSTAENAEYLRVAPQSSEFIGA
Test: Cell proliferation inhibition experiment (CellTiter-Glo), Ba/F3 De119/T790M/C797S
Type: cell-based
Conditions: Ba/F3 Del19/T790M/C797S EGFR triple mutant cells, 72 hours, Cell Titer-Glo; read-out: Ba/F3 (Del19/T790M/C797S) IC50
Description: 3) 30 nL of gradient diluted compound was transferred into the 384-well experimental plate using Echo 550 (Labcyte) at a DMSO final concentration of 0.1%, and the culture plate was incubated in a cell incubator for 72 hours (37° C., 5% CO2). 4) 30 μL of Cell Titer-Glo reagent was added to each well and left for 30 minutes at room temperature and protected from light. 5) Envision microplate reader (PerkinElmer) detected chemiluminescence signals. […]

>  <querySmiles>
COc1cc(N2CCC3(CC2)COCCN3C)c(-c2cnn(C)c2)cc1Nc1ncc(Br)c(Nc2cc3c(cc2N(C)S(C)(=O)=O)CC3)n1

>  <GI50, nM>
9.45

$$$$
>  <querySmiles>
CCn1cc(-c2cc(Nc3ncc(Br)c(Nc4ccc5nccnc5c4P(C)(C)=O)n3)c(OC)cc2N2CCOCC2)cn1

>  <GI50, nM>
4.88

$$$$
>  <querySmiles>
CN1CCC2(CC1)CCN(c1nc(OCC(F)(F)F)c(Nc3ncc(Br)c(Nc4ccc5nccnc5c4P(C)(C)=O)n3)cc1-c1cnn(C)c1)CC2

>  <GI50, nM>
5.89

$$$$

====

Target: L858R/T790M/C797S triple mutant EGFR (Homo sapiens, UniProt P00533, C797S/L858R/T790M)
Construct: purchased Signalchem
Sequence (P00533 25-1210 T790M/C797S/L858R): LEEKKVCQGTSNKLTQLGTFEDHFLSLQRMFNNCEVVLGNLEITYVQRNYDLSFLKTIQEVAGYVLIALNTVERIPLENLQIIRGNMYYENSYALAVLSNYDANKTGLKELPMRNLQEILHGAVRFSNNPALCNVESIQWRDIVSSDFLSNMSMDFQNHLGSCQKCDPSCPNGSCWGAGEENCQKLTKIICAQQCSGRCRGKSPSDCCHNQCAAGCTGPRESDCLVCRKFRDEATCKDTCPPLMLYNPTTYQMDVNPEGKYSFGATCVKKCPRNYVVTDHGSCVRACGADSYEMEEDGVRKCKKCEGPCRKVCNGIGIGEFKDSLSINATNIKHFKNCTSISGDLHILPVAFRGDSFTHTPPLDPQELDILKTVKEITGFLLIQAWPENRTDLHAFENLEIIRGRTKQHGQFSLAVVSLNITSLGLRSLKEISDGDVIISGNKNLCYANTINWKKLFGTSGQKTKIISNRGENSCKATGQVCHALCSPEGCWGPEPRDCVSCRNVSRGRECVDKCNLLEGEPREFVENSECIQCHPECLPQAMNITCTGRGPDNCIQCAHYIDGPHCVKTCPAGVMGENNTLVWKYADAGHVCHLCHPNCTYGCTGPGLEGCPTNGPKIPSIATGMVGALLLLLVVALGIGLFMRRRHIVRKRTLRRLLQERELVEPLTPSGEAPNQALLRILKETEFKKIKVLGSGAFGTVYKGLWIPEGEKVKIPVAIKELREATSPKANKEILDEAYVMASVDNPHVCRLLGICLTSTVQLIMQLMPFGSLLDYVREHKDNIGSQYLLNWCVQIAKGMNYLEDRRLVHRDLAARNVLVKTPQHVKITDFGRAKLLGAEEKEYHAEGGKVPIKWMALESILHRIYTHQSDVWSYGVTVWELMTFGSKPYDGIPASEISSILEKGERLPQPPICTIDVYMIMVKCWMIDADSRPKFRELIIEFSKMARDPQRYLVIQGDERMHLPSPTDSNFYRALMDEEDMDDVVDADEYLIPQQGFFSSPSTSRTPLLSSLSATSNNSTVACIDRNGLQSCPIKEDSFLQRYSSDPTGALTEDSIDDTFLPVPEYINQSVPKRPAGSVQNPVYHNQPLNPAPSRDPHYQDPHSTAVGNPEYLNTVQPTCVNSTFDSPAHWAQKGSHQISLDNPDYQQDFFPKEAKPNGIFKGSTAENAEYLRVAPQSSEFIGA
Assay: Enzymology experiment in vitro (HTRF/FRET kinase activity), L858R/T790M/C797S triple mutant EGFR
Assay type: biochemical
Conditions: HTRF KinEASE-TK, read-out: EGFR (L858R/T790M/C797S) IC50
pIC50: −log10 of the molar value.

>  <compound>
COc1cc(NC(C)C(F)(F)F)c(-c2cnn(C)c2)cc1Nc1ncc(Br)c(Nc2ccc3nccnc3c2P(C)(C)=O)n1 (stereo not drawn)

>  <testTarget>
L858R/T790M/C797S triple mutant EGFR (Homo sapiens, UniProt P00533, C797S/L858R/T790M)

>  <pIC50>
9.07

$$$$
>  <compound>
COc1cc(N2CCOCC2)c(-c2cnn(C)c2)cc1Nc1nccc(Nc2ccc3nccnc3c2P(C)(C)=O)n1

>  <testTarget>
L858R/T790M/C797S triple mutant EGFR (Homo sapiens, UniProt P00533, C797S/L858R/T790M)

>  <pIC50>
8.91

$$$$
>  <compound>
COc1cc(N2CCOCC2)c(-c2cnn(C)c2)cc1Nc1ncc(C#N)c(Nc2ccc3nccnc3c2P(C)(C)=O)n1

>  <testTarget>
L858R/T790M/C797S triple mutant EGFR (Homo sapiens, UniProt P00533, C797S/L858R/T790M)

>  <pIC50>
9.05

$$$$
>  <compound>
COc1cc(N2CCN3CCCC[C@@H]3C2)c(-c2cnn(C)c2)cc1Nc1ncc(Br)c(Nc2ccc3nccnc3c2P(C)(C)=O)n1

>  <testTarget>
L858R/T790M/C797S triple mutant EGFR (Homo sapiens, UniProt P00533, C797S/L858R/T790M)

>  <pIC50>
9.48

$$$$
>  <compound>
COCCN1CCC2(CC1)CCN(c1cc(OC)c(Nc3ncc(Br)c(Nc4ccc5nccnc5c4P(C)(C)=O)n3)cc1-c1cnn(C)c1)CC2

>  <testTarget>
L858R/T790M/C797S triple mutant EGFR (Homo sapiens, UniProt P00533, C797S/L858R/T790M)

>  <pIC50>
9.62

$$$$
>  <compound>
COc1cc(N2CCOCC2)c(-c2cnn(C)c2)cc1Nc1ncc(Br)c(Nc2ccc3nccnc3c2N(C)S(C)(=O)=O)n1

>  <testTarget>
L858R/T790M/C797S triple mutant EGFR (Homo sapiens, UniProt P00533, C797S/L858R/T790M)

>  <pIC50>
9.54

$$$$

====

Target: Ba/F3 De119/T790M/C797S EGFR triple mutant cell line (Homo sapiens, UniProt P00533, T790M/C797S, cells depend on it, form not given)
Assay: Cell proliferation inhibition experiment (CellTiter-Glo), Ba/F3 De119/T790M/C797S
Format: cell-based
Conditions: Ba/F3 Del19/T790M/C797S EGFR triple mutant cells, 72 hours, Cell Titer-Glo; read-out: Ba/F3 (Del19/T790M/C797S) IC50
Counter-ions that a name gives are not always drawn.
With a cut-off of 3 nM, any GI50 strictly below it is called true (1); any GI50 meeting it or above is called false (0).

>  <compound>
COc1cc(N2CCOC(C)(C)C2)c(-c2cnn(C)c2)cc1Nc1ncc(Br)c(Nc2ccc3nccnc3c2P(C)(C)=O)n1

>  <classAssignment>
true (1)

$$$$
>  <compound>
COc1cc(N2CCC3(CC2)CCN(C(C)CF)CC3)c(-c2cnn(C)c2)cc1Nc1ncc(Br)c(Nc2ccc3nccnc3c2P(C)(C)=O)n1 (stereo not drawn)

>  <classAssignment>
true (1)

$$$$
>  <compound>
COc1cc(N2CCN(CCC(F)F)CC2)c(-c2cnn(C)c2)cc1Nc1ncc(Br)c(Nc2ccc3nccnc3c2P(C)(C)=O)n1

>  <classAssignment>
true (1)

$$$$
>  <compound>
COc1cc(N2CCN(C(C)=O)CC2)c(-c2cnn(C)c2)cc1Nc1ncc(Br)c(Nc2ccc3nccnc3c2P(C)(C)=O)n1

>  <classAssignment>
false (0)

$$$$
>  <compound>
COc1cc(N2CCC3(CC2)CN(C)C3)c(-c2cnn(C)c2)cc1Nc1ncc(Br)c(Nc2ccc3nccnc3c2P(C)(C)=O)n1 [Compound 16, formate]

>  <classAssignment>
false (0)

$$$$
